Just for reference, paper PMC11637378 is where these values come from.

Where a name gives a salt, the structure may show the parent alone.
Reported Offscreen_42hr values, parent strain (SAWy518).

// known answers, use as guide
Br.Br.N=C(N)SCCN [AMINOETHYLISOTHIOUREA DIHYDROBROMIDE]
0.1802
COc1cccc2c1C(=O)c1c(O)c3c(c(O)c1C2=O)C[C@@](O)(C(=O)CO)C[C@H]3O[C@H]1C[C@H](N)[C@H](O)[C@H](C)O1.Cl [Doxorubicin (Adriamycin)]
0.8771
CCCCc1oc2ccccc2c1C(=O)c1cc(I)c(OCCN(CC)CC)c(I)c1 [Amiodarone hydrochloride]
0.9258

molecule COc1ccc(-c2coc3cc(O)cc(O)c3c2=O)cc1 [Biochanin A] , Offscreen_42hr observed: 0.9431
